B1: Cold shock protein CspB, residues 1 to 66; numbered along this chain, P41016 (parent)
chain: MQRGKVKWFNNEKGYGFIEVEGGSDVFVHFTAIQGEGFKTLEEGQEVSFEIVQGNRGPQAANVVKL

- Variants of: B1
- experiment.notes: abundance fitness (aPCA) (normalised: wild type 0, dead -1); higher = more abundant; growth selection in yeast, the domain comes from the species named
- measurement.conditions: Bacillus caldolyticus
Rule: abundance fitness under -0.1 gives f, otherwise t.

{"mutant.designation": "K39L", "label.value": "t"}
{"mutant.designation": "Q2W", "label.value": "t"}
{"mutant.designation": "I18F", "label.value": "f"}
{"mutant.designation": "T40Q", "label.value": "t"}
{"mutant.designation": "E36M", "label.value": "t"}
{"mutant.designation": "N10I", "label.value": "t"}
{"mutant.designation": "S24L", "label.value": "t"}
{"mutant.designation": "E19T", "label.value": "t"}
{"mutant.designation": "G44P", "label.value": "f"}
{"mutant.designation": "I33A", "label.value": "f"}
{"mutant.designation": "A32N", "label.value": "t"}
{"mutant.designation": "Q45P", "label.value": "f"}
{"mutant.designation": "K5E", "label.value": "t"}
{"mutant.designation": "G16N", "label.value": "f"}
{"mutant.designation": "N11I", "label.value": "t"}
{"mutant.designation": "W8R", "label.value": "t"}
{"mutant.designation": "V28H", "label.value": "f"}
{"mutant.designation": "E43A", "label.value": "t"}
{"mutant.designation": "Y15M", "label.value": "f"}
{"mutant.designation": "N10L", "label.value": "t"}
{"mutant.designation": "E36N", "label.value": "t"}
{"mutant.designation": "F9A", "label.value": "f"}
{"mutant.designation": "K39N", "label.value": "t"}
{"mutant.designation": "V28W", "label.value": "f"}
{"mutant.designation": "E46R", "label.value": "t"}
{"mutant.designation": "E12R", "label.value": "t"}
{"mutant.designation": "K13P", "label.value": "f"}
{"mutant.designation": "E46H", "label.value": "t"}
{"mutant.designation": "V20P", "label.value": "t"}
{"mutant.designation": "R3Y", "label.value": "t"}
{"mutant.designation": "V20I", "label.value": "t"}
{"mutant.designation": "E43S", "label.value": "t"}
{"mutant.designation": "N11M", "label.value": "t"}
{"mutant.designation": "G23Y", "label.value": "t"}
{"mutant.designation": "I18A", "label.value": "f"}
{"mutant.designation": "F30C", "label.value": "t"}
{"mutant.designation": "T31G", "label.value": "t"}
{"mutant.designation": "V26C", "label.value": "t"}
{"mutant.designation": "M1I", "label.value": "t"}
{"mutant.designation": "N10P", "label.value": "f"}
{"mutant.designation": "E43L", "label.value": "t"}
{"mutant.designation": "V20F", "label.value": "t"}
{"mutant.designation": "Y15F", "label.value": "t"}
{"mutant.designation": "Y15H", "label.value": "t"}
{"mutant.designation": "E46I", "label.value": "t"}
{"mutant.designation": "Y15N", "label.value": "f"}
{"mutant.designation": "G16T", "label.value": "f"}
{"mutant.designation": "F30T", "label.value": "f"}
{"mutant.designation": "G16A", "label.value": "f"}
{"mutant.designation": "Y15A", "label.value": "f"}
{"mutant.designation": "Q2G", "label.value": "t"}
{"mutant.designation": "K13M", "label.value": "t"}
{"mutant.designation": "G37I", "label.value": "f"}
{"mutant.designation": "F17S", "label.value": "f"}
{"mutant.designation": "G23I", "label.value": "t"}
{"mutant.designation": "A32P", "label.value": "f"}
{"mutant.designation": "R3C", "label.value": "t"}
{"mutant.designation": "T40G", "label.value": "t"}
{"mutant.designation": "V20Q", "label.value": "t"}
{"mutant.designation": "V26S", "label.value": "f"}
{"mutant.designation": "E36Q", "label.value": "t"}
{"mutant.designation": "E46D", "label.value": "f"}
{"mutant.designation": "G35Q", "label.value": "t"}
{"mutant.designation": "G14I", "label.value": "f"}
{"mutant.designation": "E19P", "label.value": "f"}
{"mutant.designation": "V20H", "label.value": "t"}
{"mutant.designation": "T31I", "label.value": "f"}
{"mutant.designation": "M1S", "label.value": "t"}
{"mutant.designation": "V6T", "label.value": "t"}
{"mutant.designation": "K39Y", "label.value": "f"}
{"mutant.designation": "F30W", "label.value": "t"}
{"mutant.designation": "G22W", "label.value": "t"}
{"mutant.designation": "E12G", "label.value": "t"}
{"mutant.designation": "G14C", "label.value": "f"}
{"mutant.designation": "G35N", "label.value": "t"}
{"mutant.designation": "I33F", "label.value": "f"}
{"mutant.designation": "G37L", "label.value": "f"}
{"mutant.designation": "E19G", "label.value": "t"}
{"mutant.designation": "F17K", "label.value": "f"}
{"mutant.designation": "G16V", "label.value": "f"}
{"mutant.designation": "G37W", "label.value": "f"}
{"mutant.designation": "V6C", "label.value": "t"}
{"mutant.designation": "Y15E", "label.value": "f"}
{"mutant.designation": "V26M", "label.value": "t"}
{"mutant.designation": "G16W", "label.value": "f"}
{"mutant.designation": "N10F", "label.value": "f"}
{"mutant.designation": "N11L", "label.value": "t"}
{"mutant.designation": "L41T", "label.value": "f"}
{"mutant.designation": "D25V", "label.value": "f"}
{"mutant.designation": "V26W", "label.value": "f"}
